- Target entity: T1, VEGF (human, UniProt P15692)
- T1 chain: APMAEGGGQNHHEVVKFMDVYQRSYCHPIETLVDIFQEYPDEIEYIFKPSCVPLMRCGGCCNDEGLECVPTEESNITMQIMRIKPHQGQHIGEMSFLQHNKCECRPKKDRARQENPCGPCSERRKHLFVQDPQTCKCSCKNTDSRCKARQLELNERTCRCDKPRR
- Experiment notes: ELISA
// reported EC50 for each item listed
Reply numerically in nM, unit not repeated.

Check out these entries, answers already filled in.
DVD504 VEGF arm (antibody, V domains shown) VH: EVQLVESGGGLVQPGGSLRLSCAASGFTINASWIHWVRQAPGKGLEWVGAIYPYSGYTNYADSVKGRFTISADTSKNTAYLQMNSLRAEDTAVYYCARWGHSTSPWAMDYWGQGTLVTVSS VL: DIQMTQSPSSLSASVGDRVTITCRASQVIRRSLAWYQQKPGKAPKLLIYAASNLASGVPSRFSGSGSGTDFTLTISSLQPEDFATYYCQQSNTSPLTFGQGTKVEIKR    16.7
DVD510 VEGF arm (antibody, V domains shown) VH: EVQLVESGGGLVQPGGSLRLSCAASGFTINASWIHWVRQAPGKGLEWVGAIYPYSGYTNYADSVKGRFTISADTSKNTAYLQMNSLRAEDTAVYYCARWGHSTSPWAMDYWGQGTLVTVSS VL: DIQMTQSPSSLSASVGDRVTITCRASQVIRRSLAWYQQKPGKAPKLLIYAASNLASGVPSRFSGSGSGTDFTLTISSLQPEDFATYYCQQSNTSPLTFGQGTKVEIKR    23.9
DVD446 VEGF arm (antibody, V domains shown) VH: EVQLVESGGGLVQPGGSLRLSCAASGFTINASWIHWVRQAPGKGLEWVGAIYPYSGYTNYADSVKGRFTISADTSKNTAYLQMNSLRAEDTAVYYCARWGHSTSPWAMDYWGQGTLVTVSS VL: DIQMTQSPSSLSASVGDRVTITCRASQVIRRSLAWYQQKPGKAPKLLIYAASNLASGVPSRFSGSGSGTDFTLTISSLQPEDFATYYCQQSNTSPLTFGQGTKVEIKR    14.4
DVD473 VEGF arm (antibody, V domains shown) VH: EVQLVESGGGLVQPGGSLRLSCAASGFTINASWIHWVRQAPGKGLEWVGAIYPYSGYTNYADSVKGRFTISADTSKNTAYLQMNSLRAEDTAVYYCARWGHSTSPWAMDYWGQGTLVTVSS VL: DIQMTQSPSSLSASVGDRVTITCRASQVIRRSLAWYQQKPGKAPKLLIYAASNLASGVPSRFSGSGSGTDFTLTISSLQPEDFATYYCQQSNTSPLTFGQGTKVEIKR    388

Now take the following binder into account.
Recorded EC50 of DVD503 VEGF arm (antibody, V domains shown) VH: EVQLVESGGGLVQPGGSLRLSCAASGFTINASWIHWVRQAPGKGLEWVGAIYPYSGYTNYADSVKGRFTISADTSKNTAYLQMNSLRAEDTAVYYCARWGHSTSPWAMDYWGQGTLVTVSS VL: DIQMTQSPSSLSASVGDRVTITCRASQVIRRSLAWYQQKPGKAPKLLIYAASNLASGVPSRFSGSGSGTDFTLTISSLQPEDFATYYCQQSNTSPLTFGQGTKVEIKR , please.
430
